Ref: patent US20220220103A1

molecular target: CDK4-CYCLIND1 (Homo sapiens); assay: Microfluidic LabChip inhibition assay, CDK4-CYCLIND1; assay type: biochemical; conditions: Table 2; ATP 200 μM, 25° C.; read-out: CDK4 IC50
Sequence (P11802 whole entry): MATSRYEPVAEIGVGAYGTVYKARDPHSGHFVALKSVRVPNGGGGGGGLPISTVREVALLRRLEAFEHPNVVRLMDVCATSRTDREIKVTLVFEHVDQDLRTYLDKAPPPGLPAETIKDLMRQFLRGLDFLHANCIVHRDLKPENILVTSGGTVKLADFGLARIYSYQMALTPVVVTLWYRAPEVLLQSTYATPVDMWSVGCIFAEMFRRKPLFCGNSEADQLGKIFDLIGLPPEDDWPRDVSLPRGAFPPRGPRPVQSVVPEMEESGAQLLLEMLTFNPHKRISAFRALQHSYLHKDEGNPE
Sequence (P24385 whole entry partner): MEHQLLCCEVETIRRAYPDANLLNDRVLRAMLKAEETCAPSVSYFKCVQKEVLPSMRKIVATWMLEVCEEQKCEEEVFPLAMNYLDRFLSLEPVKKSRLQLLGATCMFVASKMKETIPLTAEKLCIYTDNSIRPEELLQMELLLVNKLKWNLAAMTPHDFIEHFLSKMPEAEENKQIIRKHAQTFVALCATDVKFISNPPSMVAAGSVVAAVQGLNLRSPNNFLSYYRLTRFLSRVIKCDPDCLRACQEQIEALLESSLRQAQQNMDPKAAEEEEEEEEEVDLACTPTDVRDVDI
pIC50: −log10 of the molar value.
property: pIC50

{"smiles_repr": "CN(C)[C@H]1CCN(c2ccc(Nc3ncc4cc(C#N)c(=O)n(C5CCCC5)c4n3)cn2)C1", "pIC50": 7.97}
{"smiles_repr": "N#Cc1cc2cnc(Nc3ccc(N4CCN5CCC4CC5)cn3)nc2n(C2CCCC2)c1=O", "pIC50": 6.24}

[a] N#Cc1cc2cnc(Nc3ccc(OCCN4CCCC4)nc3)nc2n(C2CCCC2)c1=O
[b] CN1CCN(c2cnc(Nc3ncc4cc(C#N)c(=O)n(C5CCCC5)c4n3)cc2C(F)(F)F)CC1
Of the two listed items, which has the higher pIC50? First: a Second: b Indicate your choice by writing its label.
a
